- assayContext: 323.15 K; 1000 kPa; Liquid; Vibrating wire viscometry
± gives the expanded uncertainty stated by the source.
measurementName: viscosity

1) CCCCOC(=O)CCCCC(=O)OCCCC [dibutyl hexanedioate]    2.774 ± 0.06 mPa·s
2) CCCOC(=O)CCCCC(=O)OCCC [dipropyl hexanedioate]    2.364 ± 0.055 mPa·s
3) CCOC(=O)CCCCC(=O)OCC [diethyl hexanedioate]    1.886 ± 0.041 mPa·s
4) COC(=O)CCCCC(=O)OC [dimethyl 1,6-hexanedioate]    1.789 ± 0.039 mPa·s

====

- assayContext: 303.15 K; 10000 kPa; Liquid; Vibrating wire viscometry
measurementName: viscosity (mPa·s)

1. CCCCOC(=O)CCCCC(=O)OCCCC [dibutyl hexanedioate]    4.759
2. CCOC(=O)CCCCC(=O)OCC [diethyl hexanedioate]    3.063
3. CCCOC(=O)CCCCC(=O)OCCC [dipropyl hexanedioate]    3.983
4. COC(=O)CCCCC(=O)OC [dimethyl 1,6-hexanedioate]    2.854

====

- assayContext: 343.15 K; 1000 kPa; Liquid; Vibrating wire viscometry
measurementName: viscosity (mPa·s)

1. CCCCOC(=O)CCCCC(=O)OCCCC [dibutyl hexanedioate]    1.95
2. COC(=O)CCCCC(=O)OC [dimethyl 1,6-hexanedioate]    1.303
3. CCCOC(=O)CCCCC(=O)OCCC [dipropyl hexanedioate]    1.673
4. CCOC(=O)CCCCC(=O)OCC [diethyl hexanedioate]    1.367

====

List of viscosity values.
- assayContext: 343.15 K; 30000 kPa; Liquid; Vibrating wire viscometry
± gives the expanded uncertainty stated by the source.
measurementName: viscosity

1) CCCOC(=O)CCCCC(=O)OCCC [dipropyl hexanedioate]    2.216 ± 0.051 mPa·s
2) CCOC(=O)CCCCC(=O)OCC [diethyl hexanedioate]    1.765 ± 0.038 mPa·s
3) CCCCOC(=O)CCCCC(=O)OCCCC [dibutyl hexanedioate]    2.612 ± 0.055 mPa·s
4) COC(=O)CCCCC(=O)OC [dimethyl 1,6-hexanedioate]    1.63 ± 0.035 mPa·s

====

List of viscosity values.
- assayContext: 303.15 K; 5000 kPa; Liquid; Vibrating wire viscometry
± gives the expanded uncertainty stated by the source.
measurementName: viscosity

1) CCCOC(=O)CCCCC(=O)OCCC [dipropyl hexanedioate]    3.766 ± 0.086 mPa·s
2) CCCCOC(=O)CCCCC(=O)OCCCC [dibutyl hexanedioate]    4.49 ± 0.095 mPa·s
3) COC(=O)CCCCC(=O)OC [dimethyl 1,6-hexanedioate]    2.735 ± 0.058 mPa·s
4) CCOC(=O)CCCCC(=O)OCC [diethyl hexanedioate]    2.912 ± 0.062 mPa·s

====

List of viscosity values.
- assayContext: 313.15 K; 10000 kPa; Liquid; Vibrating wire viscometry
measurementName: viscosity (mPa·s)

1. CCOC(=O)CCCCC(=O)OCC [diethyl hexanedioate]    2.478
2. CCCCOC(=O)CCCCC(=O)OCCCC [dibutyl hexanedioate]    3.769
3. CCCOC(=O)CCCCC(=O)OCCC [dipropyl hexanedioate]    3.178
4. COC(=O)CCCCC(=O)OC [dimethyl 1,6-hexanedioate]    2.326
